- Tested on: HCC-2998 colon
- assay.details: NCI tumour cell line growth inhibition, 48 h; in the data active means GI50 below about 0.43 µM; inactive means the rest
Give one outcome, nothing more. List: active, inactive

[
  {
    "molecule": "CCN(CC)CCOc1ccc(/C=C2\\CC3C4CC=C5C[C@@H](N6CCCC6)CC[C@]5(C)C4CC[C@]3(C)[C@H]2O)cc1OC (stereo partly drawn)",
    "assigned.class": "inactive"
  },
  {
    "molecule": "COC(=O)/C(=C\\c1c(C)[nH]c2ccccc12)S(=O)(=O)c1ccccc1",
    "assigned.class": "inactive"
  },
  {
    "molecule": "O=C1OC(=O)C2C1C1(c3ccccc3)C(c3ccccc3)=C(c3ccccc3)C2(c2ccccc2)S1=O (stereo not drawn)",
    "assigned.class": "inactive"
  },
  {
    "molecule": "N=C(N)CCCCCCCCC(=N)N",
    "assigned.class": "inactive"
  },
  {
    "molecule": "CC1=Cc2cc3[n-]c(cc4nc(cc5[n-]c(cc1n2)cc5C)C(C)=C4CCC(=O)O)c(CCC(=O)O)c3C.[Pd+2]",
    "assigned.class": "inactive"
  }
]

Field: outcome | Entry: Nc1ccccc1C#C/C=C\C#Cc1ccc(Cl)cc1Cl inactive

Give the logged outcome of this assay for the following molecule: O=C(Oc1ccc(CCl)cc1)c1ccccc1 active

Write down the call the test reported for this molecule. Item: O=C([CH-]C(=O)c1ccccc1)c1ccccc1.O=C([CH-]C(=O)c1ccccc1)c1ccccc1.[Nd+3].[OH-].[OH3+] inactive

What was the test verdict on O=C(NOCC1CC1)c1ccc(F)c(F)c1Nc1ccc(I)cc1Cl ? active

Status in this test for Cc1[nH]c(/C=C2\C(=O)Nc3ccc(F)cc32)c(C)c1C(=O)NC[C@H](O)CN1CCOCC1 ? inactive
